Some sequences, each annotated with its measured pull-down binding Z-score.
# System: TO-N3-2 (biotin conjugate)
# Assay protocol: pull-down binding Z-score (relative to library population); higher = stronger binding
# Settings: RNA library: Library-2
// no unit string in output, number only

In [3]: df
Out[3]:
                           primary_sequence         measured_parameter  numeric_readout
0                UGGGUAGAAUUCGAUCUGUCUAUCCA  pull-down binding Z-score           -0.327
1  GGGUUGGGUUGGGUUGGGUUGGGUUGGGUU [G4_r(GGGUU)6]  pull-down binding Z-score             5.08
2  ACAAGAGGGUGUGGUUGAUUAUGGUGCUAGAUUUUACUUUUACACCAGUAAAACAACUGUAGCGUCACUUAUCAACACACUUAACGAUCUAAAUGAAACUCUUGU  pull-down binding Z-score            0.277
3    GCGCUGCCAGAAACUGGCGGGAGCGC [bulge-GGG]  pull-down binding Z-score            0.604
4  CUUGCGGGGCCUUCGCCGCACACAAG [hsa-mir-99b]  pull-down binding Z-score            0.595

Summary: GGGCCAGUCUGACCGUUUCUAGGCG [hsa-mir-551a] , TO-N3-2 (biotin conjugate), pull-down binding Z-score = 1.75
